Molecular target: UniProtKB P30547
Sequence (P30547 whole entry): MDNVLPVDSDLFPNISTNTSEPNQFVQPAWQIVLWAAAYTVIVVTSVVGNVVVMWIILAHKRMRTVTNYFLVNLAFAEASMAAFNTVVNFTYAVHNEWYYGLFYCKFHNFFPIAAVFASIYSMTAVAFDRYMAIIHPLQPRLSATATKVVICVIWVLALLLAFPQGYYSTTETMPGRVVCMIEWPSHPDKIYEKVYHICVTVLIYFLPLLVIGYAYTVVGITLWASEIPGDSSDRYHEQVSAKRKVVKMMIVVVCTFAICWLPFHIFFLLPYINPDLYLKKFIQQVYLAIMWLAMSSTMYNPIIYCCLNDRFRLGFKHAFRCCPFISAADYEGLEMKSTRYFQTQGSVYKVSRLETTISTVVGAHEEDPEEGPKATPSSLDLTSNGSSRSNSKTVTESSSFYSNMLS
Assay: Evaluated for the binding affinity towards NK1 receptor in the striatal membranes of guinea pig
Assay type: cell membranes, Striatum, Membrane
pKi: −log10 of the molar value.
measured.parameter: pKi

| compound | result.value |
| --- | --- |
| COc1ccccc1CN[C@H]1CCCN[C@H]1c1ccccc1 (stereo in doubt; 6b) [CP-99994] | 9.57 |
| COc1ccccc1CN[C@H]1CCCN[C@H]1c1ccccc1 (stereo in doubt; 5) [CP-99994] | 9.77 |
